Biological target: T1, polypeptide GC3pep (human)
T1 construct: also called membrane proximal polypeptide GC3pep
T1 peptide: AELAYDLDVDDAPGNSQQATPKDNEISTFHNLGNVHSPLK
Assay: ELISA, GC3pep coated, antibody 0.001 nM
Reported endpoint: OD450 nm (OD450 nm)

| Binder | Unit abbreviation | Measured value |
| --- | --- | --- |
| F3.38.7 (antibody, human IgG1, kappa, V domains shown, human-murine chimeric antibody) VH: QVQLQQSGAELVRPGASVKLSCKASGYTFTDYEIHWVKQTPVLGLEWIGAIDPKTGNTAYNQKFMGKATLTADKSSTTAYMDLRSLTSEDSAVYYCTRYFSFAYWGQGTLVTVSA VL: DVLMTQTPLSLPVSLGDQASISCRSSQTFVHSNGNTYLQWYLQKPGQSPKLLIYKVSNRFSGVPDRFSGSGSGTDFTLKISRVEAEDLGVYYCFQGSHVPYTFGSGTKLEIKR | OD450 nm | 0.06 |
| F1.115.8 (antibody, human IgG1, kappa, V domains shown, human-murine chimeric antibody) VH: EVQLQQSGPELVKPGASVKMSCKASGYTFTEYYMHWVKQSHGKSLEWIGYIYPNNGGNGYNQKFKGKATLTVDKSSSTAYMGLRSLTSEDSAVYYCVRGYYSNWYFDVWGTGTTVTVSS VL: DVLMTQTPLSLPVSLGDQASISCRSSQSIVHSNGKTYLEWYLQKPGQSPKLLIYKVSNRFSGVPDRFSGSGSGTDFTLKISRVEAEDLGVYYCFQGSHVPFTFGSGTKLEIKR | OD450 nm | 0.05 |
| F1.3.9 (antibody, human IgG1, kappa, V domains shown, human-murine chimeric antibody) VH: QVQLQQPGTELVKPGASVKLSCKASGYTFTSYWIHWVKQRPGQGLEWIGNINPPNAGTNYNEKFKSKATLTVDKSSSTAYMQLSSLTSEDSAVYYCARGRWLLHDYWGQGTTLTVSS VL: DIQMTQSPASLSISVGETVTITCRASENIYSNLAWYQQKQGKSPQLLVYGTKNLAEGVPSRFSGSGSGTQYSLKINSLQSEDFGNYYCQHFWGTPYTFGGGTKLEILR | OD450 nm | 0.05 |
